- Test system: unfractionated heparin (UFH)
- ASSAY_EXPLANATION: aPTT clotting assay, UFH 0.2 U/mL in plasma (Example 7)
- Type: biochemical
- CONDITION_DETAILS: UFH 0.2 U/mL in plasma
- Method: aPTT clotting Assay. Unfractionated heparin was mixed with plasma at a final concentration of 0.2 U/mL. […] The ACL Elite Hemostasis analyzer (Beckman Coulter™) was used to add aPTT reagent (HemosIL SynthASil) to supplemented plasma. Clotting was initiated by addition of CaCl2 and time to clot was recorded.
MEASUREMENT_LABEL: UFH (aPTT) EC50 (µg/mL)
Give bare numbers, in µg/mL.

Asked: Requested read-out: UFH (aPTT) EC50. Entry: COc1ccc(NC(=O)[C@@H](CCCNC(=N)N)NC(=O)c2cc(NC(=O)[C@@H](CCCNC(=N)N)NC(=O)c3cc(NC(=O)[C@@H](CCCNC(=N)N)NC(=O)c4cc(NC(=O)CCCCNC(=N)N)ccc4OC)ccc3OC)ccc2OC)cc1C(N)=O
Given back: 1.67

###

I'd appreciate it if you could supply EC50 values for the items below.
- Test system: UFH
- ASSAY_EXPLANATION: FXa amidolytic assay (Example 10), UFH
- CONDITION_DETAILS: read-out: Heparin FXa uM EC50; UFH 0.03 units/mL; human antithrombin, bovine Factor Xa
Starred links: 1 amine or outer side, 2 acyl side, 3 side chain; linkers in the order of their positions; H or OH if unused. Non-standard residues stand in square brackets, D forms with d. Residues, ends and D or L forms follow the SMILES beside them. *: point of attachment. NH(3-CONH2-4-OMe-phenyl) = COc1ccc(N*)cc1C(N)=O; 3Abz(6-OMe) = COc1ccc(N[*:1])cc1C(=O)[*:2]; X1 = O=C(O)COc1ccc(N[*:1])cc1C(=O)[*:2]
Give bare numbers, in µM.

COc1ccc(NC(=O)[C@H](CCCCN)NC(=O)c2cc(NC(=O)[C@H](CCCCN)NC(=O)c3cc(NC(=O)[C@H](CCCCN)NC(=O)c4cc(NC(=O)[C@H](CCCCN)NC(=O)[C@@H](N)Cc5ccccc5)ccc4OC)ccc3OC)ccc2OCC(=O)O)cc1C(N)=O [Compound 358] (H-FK[3Abz(6-OMe)]K[3Abz(6-OMe)]K[X1]K-{NH(3-CONH2-4-OMe-phenyl)}) ... 0.314

Asked: Can you look up the measured EC50 of COc1ccc(NC(=O)[C@H](CCCCN)NC(=O)c2cc(NC(=O)[C@H](CCCCN)NC(=O)c3cc(NC(=O)[C@H](CCCCN)NC(=O)c4cc(NC(=O)[C@H](CCCCN)NC(=O)Cc5ccccc5)ccc4OC)ccc3OC)ccc2OC)cc1C(N)=O for me?
Given back: 0.147

###

Task for the reader: assign each of the following molecules its reported UFH (aPTT) EC50.
- System: unfractionated heparin (UFH)
- ASSAY_EXPLANATION: aPTT clotting assay, UFH 0.2 U/mL in plasma (Example 7)
- Format: biochemical
- CONDITION_DETAILS: UFH 0.2 U/mL in plasma
Give bare numbers, in µg/mL.

COc1ccc(NC(=O)[C@H](CCCNC(=N)N)NC(=O)c2cc(NC(=O)[C@H](CCCCN)NC(=O)c3cc(NC(=O)[C@H](CCCCN)NC(=O)c4cc(NC(=O)[C@@H](N)CCCCN)ccc4OC)ccc3OC)ccc2OC)cc1C(N)=O [Compound 78] ... 2.99

// each listed molecule needs a value for UFH (aPTT) EC50
1. COc1ccc(NC(=O)[C@H](CCCCN)NC(=O)c2cc(NC(=O)[C@H](CCCCN)NC(=O)c3cc(NC(=O)[C@H](CCCCN)NC(=O)c4cc(NC(=O)[C@@H](N)CCCCN)ccc4OC)ccc3OC)ccc2OC)cc1C(=O)N[C@@H](CCCNC(N)=O)C(=O)O [Compound 142]
2. COc1ccc(NC(=O)[C@H](CCCCN)NC(=O)c2cc(NC(=O)[C@H](CCCCN)NC(=O)c3cc(NC(=O)[C@H](CCCCN)NC(=O)c4cc(NC(=O)[C@@H](N)CCCCN)ccc4OC)ccc3OCC(=O)O)ccc2OC)cc1C(N)=O [Compound 118]
3. COc1ccc(C(=O)N[C@H](CCCCN)C(=O)Nc2cc(C(=O)N[C@H](CCCCN)C(=O)Nc3cc(C(=O)N[C@H](CCCCN)C(=O)Nc4cc(C(N)=O)ccc4OC)ccc3OC)ccc2OC)cc1NC(=O)[C@H](N)CCCCN [Compound 35]

Given back:
1. 2.88
2. 3.14
3. 30.65
